test: qHTS assay for small molecules that induce genotoxicity in human embryonic kidney cells expressing luciferase-tagged ATAD5 - cell viability (AID 651634); conditions: HEK293T ATAD5-luc cells viability, CellTiter-Fluor, 15.5 h; series mostly up to 83.3 µM; also: nearly all actives have a fitted effect of over 25% in size
Inconclusive results are not listed. Active and inactive are the calls of the source. Calls follow the shape of the full dose curve.
Possible outcomes: 1 (active), 0 (inactive)

molecule: O=C=Nc1cccc(C(F)(F)F)c1
label_class: 0
//
molecule: CC(C)c1nc(CN(C)C(=O)N[C@H](C(=O)N[C@@H](Cc2ccccc2)C[C@H](O)[C@H](Cc2ccccc2)NC(=O)OCc2cncs2)C(C)C)cs1
label_class: 0
//
molecule: C=C/C(C)=C/C/C=C(\C)CCC=C(C)C
label_class: 0
//
molecule: CCCCCC[C@@H](O)C/C=C\CCCCCCCC(=O)O
label_class: 0
//
molecule: C[C@@H]1CC(=O)NN=C1c1ccc(NN=C(C#N)C#N)cc1
label_class: 1
//
molecule: CCCCCCCCCCC(=O)O
label_class: 0
//
molecule: CCOC(=O)c1ccc(OCCN2C[C@H](O)[C@@H](O)[C@H](O)[C@H]2CO)cc1
label_class: 0
//
molecule: CCCCCCCCCCCCCCN(CCO)CCO
label_class: 0
//
molecule: O=C(O)CCCCCCCCCCCBr
label_class: 0
//
molecule: CCCCCC[C@@H](O)C/C=C\CCCCCCCC(=O)OCC(O)CO (stereo partly drawn)
label_class: 0
//
molecule: CC=C(Cl)Cl
label_class: 0
//
molecule: FC(F)(F)c1ccccc1Cl
label_class: 0
//
molecule: CC(CCC(=O)O)C(=O)O (stereo not drawn)
label_class: 0
//
molecule: O=c1[nH]ncc2ccccc12
label_class: 0
//
molecule: CN1C(C(=O)Nc2ccccn2)=C(O)c2sccc2S1(=O)=O
label_class: 0
//
molecule: O=C1c2ccccc2C(=O)C1(O)O
label_class: 0
//
molecule: Oc1c(I)cc(I)c2cccnc12
label_class: 0
//
molecule: CCCCC(CC)COP(=O)(O)O (stereo not drawn)
label_class: 0
//
molecule: O=C(CCCN1CC=C(n2c(=O)[nH]c3ccccc32)CC1)c1ccc(F)cc1
label_class: 0
//
molecule: CCC(C)(C)OC
label_class: 0
//
molecule: O=c1c(O)c(-c2ccc(O)cc2)oc2cc(O)cc(O)c12
label_class: 0
//
molecule: Nc1cccc2c1CN(C1CCC(=O)NC1=O)C2=O (stereo not drawn)
label_class: 0
//
molecule: c1csc(SSc2cccs2)c1
label_class: 0

---

molecular target: Nuclear receptor subfamily 1 group I member 2 (Homo sapiens); experiment: Human pregnane X receptor (PXR) activation by small molecules, qHTS assay (AID 1346985); conditions: DPX-2 HepG2 CYP3A4-luciferase, 24 h; series mostly up to 38.3 µM; also: nearly all actives have a fitted effect of over 40% in size; also: potency is read from the fitted curve at half-maximal effect
Records with an inconclusive call do not appear. Active and inactive are the calls of the source. The call rests on the fitted dose curve; in most records, active means well fitted activation curve with a large enough effect in the repeat runs; inconclusive means weak or mixed curves; inactive means flat fitted curve, though single readings scatter.
test_readout: Potency

compound: Cc1[nH]cnc1CN1CCc2c(c3ccccc3n2C)C1=O
result: inactive
--
compound: CN1CCCC(CC2c3ccccc3Sc3ccccc32)C1 (configuration not stated)
result: inactive
--
compound: C[C@@H](O)[C@H]1C(=O)N2C(C(=O)O)=C([C@H]3CCCO3)S[C@H]12
result: inactive
--
compound: CC1(CN2CCC(n3c(=O)[nH]c4ccccc43)CC2)OCc2ccccc2-n2cccc21 (configuration not stated)
result: 4.47 µM (active)
--
compound: OCCN1CCN(CCCN2c3ccccc3Sc3ccc(Cl)cc32)CC1
result: inactive
--
compound: O=C(OCC(O)CO)c1ccccc1Nc1ccnc2cc(Cl)ccc12 (configuration not stated)
result: inactive
--
compound: Nc1ncnc2c1ncn2[C@H]1CC[C@@H](CO)O1
result: inactive
